biological target: AR protein (Homo sapiens); construct: degradation activity of the compounds disclosed in the present disclosure on AR protein in VCaP cells; host or cells: VCaP; assay: Degradation of AR protein in VCaP cells (Western blot); format: cell-based; conditions: compound at 10 nM, 8 hours, read-out: Degradation rate of the AR protein in VCaP cells, 10 nM (%)
MEASUREMENT_LABEL: inhibition at 0.01 µM (%)
Quick note: give the figure in %, leave out the unit.

The examples below pair each entry with its known result.
N#Cc1ccc(O[C@H]2CC[C@H](NC(=O)c3ccc(N4CC5(CCC(N6CCC7(CCc8cc9c(cc8O7)C(=O)N(C7CCC(=O)NC7=O)C9=O)CC6)CC5)C4)nn3)CC2)cc1Cl (some centres unmarked) [Compound 33]: 49
N#Cc1ccc(O[C@H]2CC[C@H](NC(=O)c3ccc(N4CCC5(CC4)CC(N4CCC6(CCc7ccc8c(c7O6)CN(C6CCC(=O)NC6=O)C8=O)CC4)C5)nn3)CC2)cc1Cl (some centres unmarked) [Compound 154]: 75
N#Cc1ccc(O[C@H]2CC[C@H](NC(=O)c3ccc(N4CCC(N5CCC6(CCc7cc8c(cc7O6)C(=O)N(C6CCC(=O)NC6=O)C8=O)CC5)CC4)nn3)CC2)cc1Cl (some centres unmarked) [Compound 26]: 48
COc1cc(O[C@H]2CC[C@H](NC(=O)c3ccc(N4CCC(C#N)(CN5CCC6(CC5)COc5c6ccc6c5C(=O)N(C5CCC(=O)NC5=O)C6=O)CC4)nn3)CC2)ccc1C#N (some centres unmarked) [Compound 229]: 33

Read the next record carefully.
Item: N#Cc1ccc(O[C@H]2CC[C@H](NC(=O)c3ccc(N4CCC(N5CCC(N6CCC7(CC6)COc6c7ccc7c6CN(C6CCC(=O)NC6=O)C7=O)CC5)CC4)nn3)CC2)cc1Cl (some centres unmarked) [Compound 173] Test system: AR protein (Homo sapiens) Read-out: inhibition at 0.01 µM Value: ?
75

====

Target: AR protein (Homo sapiens, UniProt P10275, T878A)
Construct: degradation activity of the compounds disclosed in the present disclosure on AR protein in LNCaP cells; host or cells: LNCaP FGC
Sequence (P10275 1-920 T878A): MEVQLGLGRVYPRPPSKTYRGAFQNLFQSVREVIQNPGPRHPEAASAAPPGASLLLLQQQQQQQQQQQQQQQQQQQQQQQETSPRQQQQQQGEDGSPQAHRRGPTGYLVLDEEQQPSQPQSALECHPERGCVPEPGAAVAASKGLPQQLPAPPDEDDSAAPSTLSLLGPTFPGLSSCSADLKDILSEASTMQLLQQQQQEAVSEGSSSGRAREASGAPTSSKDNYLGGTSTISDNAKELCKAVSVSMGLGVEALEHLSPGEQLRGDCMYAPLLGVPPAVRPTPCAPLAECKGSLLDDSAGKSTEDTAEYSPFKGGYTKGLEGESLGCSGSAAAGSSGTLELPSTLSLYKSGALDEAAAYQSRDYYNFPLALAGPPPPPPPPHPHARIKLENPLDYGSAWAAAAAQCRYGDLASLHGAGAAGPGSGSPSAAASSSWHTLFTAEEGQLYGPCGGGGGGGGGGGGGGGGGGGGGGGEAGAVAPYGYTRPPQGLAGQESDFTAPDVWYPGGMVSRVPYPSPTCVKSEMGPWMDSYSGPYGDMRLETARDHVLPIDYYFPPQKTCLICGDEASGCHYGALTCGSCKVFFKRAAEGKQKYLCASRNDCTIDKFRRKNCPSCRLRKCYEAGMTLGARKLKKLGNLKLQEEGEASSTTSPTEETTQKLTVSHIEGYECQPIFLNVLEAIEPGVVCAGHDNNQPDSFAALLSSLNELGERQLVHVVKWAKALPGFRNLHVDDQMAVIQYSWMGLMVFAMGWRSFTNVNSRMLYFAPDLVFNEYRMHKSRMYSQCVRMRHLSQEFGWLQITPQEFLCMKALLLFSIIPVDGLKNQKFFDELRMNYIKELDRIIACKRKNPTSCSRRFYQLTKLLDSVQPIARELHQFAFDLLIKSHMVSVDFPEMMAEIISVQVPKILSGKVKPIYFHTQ
Test: Degradation of AR protein in LNCaP cells (Western blot)
Format: cell-based
Conditions: LNCaP, 8 h, read-out: Degradation rates of the AR protein in LNCaP cells, 10 nM (%)
MEASUREMENT_LABEL: inhibition at 0.01 µM (%)
Kindly provide the numeric value in % only, without the unit symbol.

N#Cc1ccc(O[C@H]2CC[C@H](NC(=O)c3ccc(N4CCC(N5CCC6(CC5)COc5cc7c(cc56)C(=O)N(C5CCC(=O)NC5=O)C7=O)CC4)nn3)CC2)cc1Cl (stereo partly drawn): 73
N#Cc1ccc(O[C@H]2CC[C@H](NC(=O)c3ccc(N4CC(N5CC6(CCc7cc8c(cc7O6)C(=O)N(C6CCC(=O)NC6=O)C8=O)C5)C4)nn3)CC2)cc1Cl (stereo partly drawn): 51

Reported inhibition at 0.01 µM, compound N#Cc1ccc(O[C@H]2CC[C@H](NC(=O)c3ccc(N4CCC(N5CCC6(CCc7ccc8c(c7O6)CN(C6CCC(=O)NC6=O)C8=O)CC5)CC4)nn3)CC2)cc1Cl (stereo partly drawn) : ____
22
